System: human umbilical vein endothelial cells (HUVECs)
Assay: Inhibitory effect on HUVEC cell growth (MTS/PES colorimetry)
Assay type: cell-based
Settings: cultured 5 days, MTS/PES absorbance 490 nm
Protocol: Using human umbilical vein endothelial cells (HUVECs), the effect of the fumagillin analog conjugates and the fumagillin analogs on cell growth was evaluated. The HUVECs were added to M199 medium supplemented with 20% FBS, after which the cells were incubated at 37° C. under 5% CO2. […] Colorimetry was performed to determine the extent of cell growth by adding 20 μL of MTS/PES reagent to each well, incubation for 4 h at 37° C. followed by measuring the absorbance at 490 nm.
recorded.metric: IC50

What value of IC50 has been recorded for this entry: COC(=O)[C@@H](N)CSCC(=O)NC(=O)O[C@@H]1CC[C@]2(CO2)[C@@H](C2(C)O[C@@H]2CC=C(C)C)[C@@H]1OC (stereo partly shown) [Compound 14]
< 0.025 µM

----------
system: B16F10 tumor cells; test: Tumor growth delay in B16F10 mouse melanoma; format: in vivo; details: 80 mg/kg fumagillin analog equiv., IV, q3d × 4, BDF1 mice
Please go through the items and note down their % TGD.

What value of % TGD has been recorded for this entry: CO[C@H]1[C@H](C2(C)O[C@@H]2CC=C(C)C)[C@]2(CC[C@H]1OC(=O)N[C@@H](C)c1ccccc1)CO2 (stereo partly shown)
5-20%

What value of % TGD has been recorded for this entry: CO[C@@H]1[C@H](O)CC[C@]2(CO2)[C@H]1C1(C)O[C@@H]1CC=C(C)C (stereo partly shown)
20-50%

What value of % TGD has been recorded for this entry: COc1ccc2[nH]cc(CCC(=O)O[C@@H]3CC[C@]4(CO4)[C@@H](C4(C)O[C@@H]4CC=C(C)C)[C@@H]3OC)c2c1 (stereo partly shown)
20-50%

What value of % TGD has been recorded for this entry: CO[C@H]1[C@H](C2(C)O[C@@H]2CC=C(C)C)[C@]2(CC[C@H]1OC(=O)/C=C/c1ccccc1)CO2 (stereo partly shown)
5-20%

What value of % TGD has been recorded for this entry: CO[C@H]1[C@H](C2(C)O[C@@H]2CC=C(C)C)[C@]2(CC[C@H]1OC(=O)C(=O)N(C)OC)CO2 (stereo partly shown)
>50%

What value of % TGD has been recorded for this entry: CO[C@H]1[C@H](C2(C)O[C@@H]2CC=C(C)C)[C@]2(CC[C@H]1OC(=O)NCCc1ccc(NC(C)=O)cc1)CO2 (stereo partly shown)
5-20%

What value of % TGD has been recorded for this entry: CO[C@H]1[C@H](C2(C)O[C@@H]2CC=C(C)C)[C@]2(CC[C@H]1NC(=O)C13CCC(C(=O)NCCCO)(CC1)CC3)CO2 (stereo partly shown)
5-20%
